I'd appreciate it if you could supply log10(IC50) values for the items below.
Biological target: human α1G T-type channels (Homo sapiens, UniProt O43497)
Sequence (O43497 whole entry): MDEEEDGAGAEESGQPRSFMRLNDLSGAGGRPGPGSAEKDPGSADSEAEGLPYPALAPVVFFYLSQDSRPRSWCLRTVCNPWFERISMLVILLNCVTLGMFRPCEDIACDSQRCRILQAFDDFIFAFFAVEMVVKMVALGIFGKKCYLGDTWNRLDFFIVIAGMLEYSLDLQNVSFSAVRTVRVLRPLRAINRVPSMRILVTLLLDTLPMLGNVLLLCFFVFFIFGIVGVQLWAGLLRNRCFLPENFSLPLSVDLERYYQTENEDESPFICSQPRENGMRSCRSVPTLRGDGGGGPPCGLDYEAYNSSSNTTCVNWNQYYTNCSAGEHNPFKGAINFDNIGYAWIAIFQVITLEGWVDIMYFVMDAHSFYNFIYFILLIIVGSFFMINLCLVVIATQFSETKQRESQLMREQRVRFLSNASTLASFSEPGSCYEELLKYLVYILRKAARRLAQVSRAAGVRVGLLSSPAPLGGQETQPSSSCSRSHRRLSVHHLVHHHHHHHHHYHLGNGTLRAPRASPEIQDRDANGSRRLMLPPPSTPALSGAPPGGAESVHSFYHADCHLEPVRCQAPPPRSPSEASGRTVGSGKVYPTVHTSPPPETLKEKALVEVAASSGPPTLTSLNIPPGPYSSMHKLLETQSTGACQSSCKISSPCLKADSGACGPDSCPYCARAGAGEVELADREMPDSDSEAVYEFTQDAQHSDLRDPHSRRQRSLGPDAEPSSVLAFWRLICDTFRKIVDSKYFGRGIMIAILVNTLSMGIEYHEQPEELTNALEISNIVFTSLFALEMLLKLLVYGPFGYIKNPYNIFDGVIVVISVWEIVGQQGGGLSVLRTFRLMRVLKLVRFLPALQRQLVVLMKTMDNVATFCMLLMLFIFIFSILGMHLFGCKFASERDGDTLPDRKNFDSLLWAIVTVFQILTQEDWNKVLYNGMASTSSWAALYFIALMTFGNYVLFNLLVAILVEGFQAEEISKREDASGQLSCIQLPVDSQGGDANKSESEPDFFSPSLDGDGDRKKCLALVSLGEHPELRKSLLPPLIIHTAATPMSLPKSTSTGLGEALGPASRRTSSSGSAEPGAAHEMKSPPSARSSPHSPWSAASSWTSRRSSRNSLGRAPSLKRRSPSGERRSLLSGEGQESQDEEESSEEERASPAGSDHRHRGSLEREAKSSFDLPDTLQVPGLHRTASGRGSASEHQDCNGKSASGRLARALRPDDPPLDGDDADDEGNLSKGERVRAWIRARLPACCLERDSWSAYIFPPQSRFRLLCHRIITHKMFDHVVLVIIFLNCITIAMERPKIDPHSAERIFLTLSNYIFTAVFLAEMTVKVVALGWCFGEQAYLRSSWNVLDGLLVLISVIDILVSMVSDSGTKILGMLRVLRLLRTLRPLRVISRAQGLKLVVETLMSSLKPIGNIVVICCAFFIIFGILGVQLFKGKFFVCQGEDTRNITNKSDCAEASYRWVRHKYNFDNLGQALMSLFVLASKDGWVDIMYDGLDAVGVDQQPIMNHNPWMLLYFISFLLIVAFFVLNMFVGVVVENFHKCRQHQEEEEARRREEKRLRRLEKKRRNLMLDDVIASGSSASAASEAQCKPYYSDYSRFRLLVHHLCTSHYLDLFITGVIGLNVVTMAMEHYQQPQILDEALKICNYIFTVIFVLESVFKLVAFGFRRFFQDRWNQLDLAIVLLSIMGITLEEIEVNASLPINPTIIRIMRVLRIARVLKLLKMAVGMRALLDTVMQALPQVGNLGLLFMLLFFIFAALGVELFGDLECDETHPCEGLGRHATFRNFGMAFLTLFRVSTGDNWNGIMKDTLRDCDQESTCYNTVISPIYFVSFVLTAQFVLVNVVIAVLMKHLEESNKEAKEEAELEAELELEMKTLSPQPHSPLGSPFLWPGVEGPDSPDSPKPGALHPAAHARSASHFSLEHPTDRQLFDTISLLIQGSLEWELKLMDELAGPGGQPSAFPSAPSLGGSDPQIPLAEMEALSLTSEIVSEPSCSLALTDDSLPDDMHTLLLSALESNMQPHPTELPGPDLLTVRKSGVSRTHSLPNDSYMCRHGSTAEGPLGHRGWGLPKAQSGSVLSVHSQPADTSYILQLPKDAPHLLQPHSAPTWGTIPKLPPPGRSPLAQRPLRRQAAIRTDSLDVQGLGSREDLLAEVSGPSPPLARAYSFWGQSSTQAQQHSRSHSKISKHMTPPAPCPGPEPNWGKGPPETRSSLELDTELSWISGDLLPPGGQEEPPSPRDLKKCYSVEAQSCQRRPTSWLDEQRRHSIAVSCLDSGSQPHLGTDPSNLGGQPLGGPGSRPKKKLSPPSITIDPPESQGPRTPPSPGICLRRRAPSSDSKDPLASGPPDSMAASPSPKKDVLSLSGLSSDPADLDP
Assay: T-type calcium channel block, patch clamp in HEK cell lines
Details: mainly non-inactivated protocol; HEK cells expressing human α1G; read-out: IC50 @ −80 mV
Recall that a logarithmic scale is used here: each number is log10 of IC50 in nM.

Which value of log10(IC50) has been reported for `O=C(COc1ccc(Cl)cc1Cl)N1CCN(C(c2ccccc2)c2ccccc2)CC1` in the records?
3.10

So what's the measured log10(IC50) for this one? O=C(C[S+]([O-])C(c1ccccc1)c1ccccc1)N1CCN(C(c2ccc(F)cc2)c2ccc(F)cc2)CC1 (stereo not shown)
2.49

Given the entry `O=C(COC(c1ccccc1)c1ccccc1)N1CCN(C(c2ccccc2)c2ccccc2)CC1` , report its measured log10(IC50).
2.77

Which log10(IC50) is listed for `O=C(CNC(c1ccccc1)c1ccccc1)N1CCN(C(c2ccccc2)c2ccccc2)CC1` ?
1.90

Which log10(IC50) reading was recorded for the compound `CN(CC(=O)N1CCN(C(c2ccccc2)c2ccccc2)CC1)C(c1ccccc1)c1ccccc1` ?
3.46

Look up log10(IC50) for this compound: COCC1CN(C(=O)CNC(c2ccccc2)c2ccccc2)CCN1C(c1ccccc1)c1ccccc1 (stereo not shown)
2.69

Consider the compound `O=C(COC(c1ccccc1)c1ccccc1)N1CCN(C(c2ccc(F)cc2)c2ccc(F)cc2)CC1` and give its measured log10(IC50).
2.54

Record request: log10(IC50) value, item `O=C(CNC(c1ccccc1)c1ccccc1)N1CCN(C(c2ccc(F)cc2)c2ccc(F)cc2)CC1`
3.99

Name the recorded log10(IC50) for O=C(CNC(c1ccccc1)c1ccccc1)N1CCN(C(c2ccccc2)c2ccccc2)C(CO)C1 (stereo not shown) .
2.57

Look up log10(IC50): CN(CC(=O)N1CCN(C(c2ccccc2)c2ccc(F)cc2)CC1)C(c1ccccc1)c1ccccc1 (stereo not shown)
3.30
